Value source: ChEMBL document CHEMBL3425511

# Test Method Notes: AUC in rat at 10 mg/kg, po
# Type: ADME, organism-based
# Parameters: dose 10 mg/kg, route oral
# Experimental Setup: plasma
Reported Endpoint: AUC (ng·h/mL)

Mol | Assay Result
CC(C)(O)c1ccccc1-c1ccc2[nH]c(/C=C/c3ccc(C(F)(F)F)cc3)nc2c1 | 4200

----------
# Test Method Notes: Half life in mouse at 10 mg/kg, po
# Format: ADME, organism-based
# Parameters: dose 10 mg/kg, route oral
# Experimental Setup: in vivo

Mol | Unit Spec | half-life
CC(C)(O)c1ccccc1-c1ccc2[nH]c(/C=C/c3ccc(C(F)(F)F)cc3)nc2c1 | h | 5.87
